Record: compiled pIC50 on Aromatase (Homo sapiens) from multiple reports.
pIC50: −log10 of the molar value.

# molecule, readout relation, pIC50
records = [
    ("N#Cc1ccc(Oc2cccnc2)cc1NCc1ccccc1", "=", 6.01),
    ("COc1ccc2ccc(-c3cncnc3)c(Cl)c2c1", "<", 5.70),
    ("O=C1CC(c2cccc(O)c2)Oc2c1ccc1ccccc21 (configuration not stated)", "=", 6.21),
    ("Brc1cccc(-c2nc(-c3cccnc3)ns2)c1", "=", 5.17),
    ("Cc1cc(=O)n(C)c2c3c(ccc12)OCO3", "=", 5.90),
    ("Oc1ccc(-c2ccc(Cc3ccncc3)cc2)cc1", "=", 5.51),
    ("O=[N+]([O-])c1ccccc1S(=O)(=O)NCCc1c(C(c2ccccc2O)c2[nH]c3ccccc3c2CCNS(=O)(=O)c2ccccc2[N+](=O)[O-])[nH]c2ccccc12", "=", 5.34),
    ("Fc1ccc2c(Cn3ccnc3)c(-c3ccc(Cl)cc3)[nH]c2c1", "=", 7.08),
    ("C[C@]12CC[C@H](O)CC1=CC[C@@H]1[C@@H]2CC[C@]2(C)C(c3cccnc3)=CC[C@@H]12", "<", 4.30),
    ("N#Cc1ccc(Cn2cc(C3CCCCC3)nn2)cc1", "=", 4.97),
    ("O=S(=O)(NCCc1ccccc1)c1ccc(-n2cc(COc3cccc4ccccc34)nn2)cc1", "=", 5.47),
    ("Cc1nnc2n1-c1c(F)cc(-c3cncc(C#N)c3)cc1CC2", "<", 5.00),
    ("CCCCCCc1cn(C(c2ccc(C#N)cc2)c2ccc(C#N)cc2)nn1", "=", 5.29),
    ("O=[N+]([O-])c1ccc(Cc2cccnc2)c(OCCc2ccccc2)c1", "=", 6.89),
    ("CC/C(=C(/c1ccc(O)cc1)c1ccc(OCC(N)=O)cc1)c1ccccc1", "=", 5.03),
    ("CC(C)(C)c1ccc(CN(Cc2cccc3ccccc23)n2ccnc2)cc1", "=", 5.34),
    ("COc1ccccc1C(c1ccncc1)c1cc2c3c(c1)CCN3C(=O)CC2 (configuration not stated)", "=", 7.09),
    ("N#Cc1cccc(C2CC(=O)c3ccc4ccccc4c3O2)c1 (configuration not stated)", "=", 5.86),
    ("CC(C)=C(c1ccncc1)c1ccc(-c2cccc(N)c2)cc1", "=", 5.30),
    ("O=[N+]([O-])c1ccc(OCc2cn(Cc3ccccc3)nn2)cc1", "=", 5.56),
    ("Cc1cc(=O)[nH]c2ccccc12", "<", 3.90),
    ("Clc1ccc(OCc2cn(C(c3ccccc3)c3ccccc3)nn2)cc1", "=", 4.87),
    ("O=C1/C(=C\\c2ccncc2)C(c2ccccc2)n2cccc21 (configuration not stated)", "=", 6.19),
    ("N#Cc1ccc(C(c2ccc(C#N)cc2)n2nccn2)cc1", "=", 4.10),
    ("CC(C)=CCc1cc(C2CC(=O)c3c(O)cc(O)cc3O2)ccc1O (configuration not stated)", "=", 6.40),
    ("N#Cc1ccc(-c2cccc(O)c2)cc1Cn1cncn1", "=", 7.84),
    ("O=[N+]([O-])c1ccc(-c2cccnc2)c(OCCc2ccccc2)c1", "=", 7.12),
    ("O=C1CCc2cc(C(C3CC3)n3ccnc3)cc3c2N1CC3 (racemic)", "=", 6.64),
    ("O=C1C[C@@H](c2ccc(O)cc2)Oc2cc(O)ccc21", "=", 5.68),
    ("N#Cc1ccc(Cn2cncn2)cc1-c1ccc(Cl)c(O)c1", "=", 9.66),
    ("CCCCCCCC/C=C\\CCCCCCCC(=O)O", "=", 4.49),
    ("COc1cc2c(cc1-c1cccnc1)CCC(=O)N2C", "=", 7.31),
    ("O=S(=O)(NCCc1c(C(c2ccc(C(F)(F)F)cc2)c2[nH]c3ccccc3c2CCNS(=O)(=O)c2ccc(C(F)(F)F)cc2)[nH]c2ccccc12)c1ccc(C(F)(F)F)cc1", "=", 5.64),
    ("COC(=O)[C@]1(c2ccc(C#N)cc2Cl)CCc2cncn21", "=", 7.30),
    ("CC(C)(C#N)c1cc(Cn2cncn2)cc(-c2ccc(OS(N)(=O)=O)c(Cl)c2)c1", "=", 9.52),
    ("CCc1nnc2n1-c1cc(F)c(-c3cccnc3)cc1CC2", "<", 5.00),
    ("c1ccc(-c2nnc3n2-c2ccc(-c4cccnc4)cc2CC3)cc1", "=", 7.68),
]

###

Molecular target: Aromatase (Homo sapiens)
Sequence (P11511 whole entry): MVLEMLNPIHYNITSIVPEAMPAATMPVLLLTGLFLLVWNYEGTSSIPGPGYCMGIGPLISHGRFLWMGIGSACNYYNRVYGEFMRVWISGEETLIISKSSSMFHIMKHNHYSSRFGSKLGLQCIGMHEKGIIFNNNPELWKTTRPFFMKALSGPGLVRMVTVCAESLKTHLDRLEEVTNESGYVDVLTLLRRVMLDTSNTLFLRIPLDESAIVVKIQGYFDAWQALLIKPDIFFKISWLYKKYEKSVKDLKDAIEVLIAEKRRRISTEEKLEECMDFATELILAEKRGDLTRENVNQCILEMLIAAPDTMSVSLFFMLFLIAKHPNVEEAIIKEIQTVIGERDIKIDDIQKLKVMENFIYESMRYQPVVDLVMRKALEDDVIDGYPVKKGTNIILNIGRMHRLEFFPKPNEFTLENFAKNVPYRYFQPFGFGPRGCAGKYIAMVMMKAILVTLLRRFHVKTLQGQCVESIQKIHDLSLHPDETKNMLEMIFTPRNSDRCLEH
Record: compiled IC50 on Aromatase (Homo sapiens) from multiple reports.
measurement kind: IC50 (nM)

# molecule, unit abbreviation, readout relation, data value
data = [
    ("Cc1ccc(OCc2cn(C(c3ccccc3)c3ccccc3)nn2)cc1", "nM", "=", 26800),
    ("O=C(c1ccccc1)c1cc(Cn2ccnc2)ccc1[N+](=O)[O-]", "nM", "=", 31),
    ("CC(C)=CCc1c(O)ccc2c1O[C@H](c1ccc(O)cc1O)CC2=O", "nM", "=", 3400),
    ("O=S(=O)(NCCc1ccccc1)c1ccc(-n2cc(-c3ccccc3)nn2)cc1", "nM", ">", 12500),
    ("COc1ccc2ccc(-c3cccnc3)c(F)c2c1", "nM", ">", 2000),
    ("Nc1ccc(C2(C3CCCC3)CCC(=O)NC2=O)cc1 (stereo unspecified)", "nM", "=", 1200),
]

###

Record: compiled pIC50 on UniProtKB P11511 from multiple reports.
Target: UniProtKB P11511
Sequence (P11511 whole entry): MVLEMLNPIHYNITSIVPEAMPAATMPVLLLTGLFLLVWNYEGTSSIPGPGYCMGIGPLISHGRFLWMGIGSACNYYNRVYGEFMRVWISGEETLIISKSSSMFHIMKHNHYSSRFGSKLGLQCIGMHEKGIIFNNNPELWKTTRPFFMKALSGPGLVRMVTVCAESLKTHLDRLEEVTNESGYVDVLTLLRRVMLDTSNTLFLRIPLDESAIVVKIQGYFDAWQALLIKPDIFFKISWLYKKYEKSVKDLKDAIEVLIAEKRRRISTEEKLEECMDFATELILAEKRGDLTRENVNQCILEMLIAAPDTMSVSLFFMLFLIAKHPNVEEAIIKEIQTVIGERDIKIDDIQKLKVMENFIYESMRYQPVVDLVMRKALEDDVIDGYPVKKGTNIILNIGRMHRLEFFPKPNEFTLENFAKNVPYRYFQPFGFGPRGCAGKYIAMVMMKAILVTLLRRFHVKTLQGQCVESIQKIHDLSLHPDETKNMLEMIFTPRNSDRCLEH
pIC50: −log10 of the molar value.
The recorded pIC50 of each item maps onto one of these classes: small value: < 5; mid value: ≥ 5 and < 6; large value: ≥ 6

# molecule, assigned label
measured = [
    ("CN1CCN(C(=O)c2ccc(Cc3onc4c3C(=O)CC(C)(C)C4)cc2)CC1=O", "small value"),
    ("CC1=C(O)C(=O)C[C@]2(C)[C@H]3CCc4cocc4[C@]3(CO)CCC12O (some centres not stated)", "small value"),
    ("COc1cc2c(C)cc(=O)n(C)c2c(OC)c1OC", "mid value"),
    ("N#Cc1ccc(-n2ccc3ccncc32)cc1", "large value"),
    ("CCn1ccc2c3nc(-c4ccccc4)cc(CO)c3ccc21", "small value"),
    ("CCCCCC1(c2ccncc2)CCC(=O)NC1=O (configuration not stated)", "mid value"),
    ("N#Cc1ccc(OCc2cn(C(c3ccc(C#N)cc3)c3ccc(C#N)cc3)nn2)cc1", "mid value"),
    ("FC(F)(F)c1ccc(-c2ccncc2)c(OCCc2ccccc2)c1", "mid value"),
    ("COc1cc(OC)c2[nH]c(=O)cc(C)c2c1OC", "small value"),
    ("O=c1c2cccnc2oc2c(Cn3ccnc3)ccc([N+](=O)[O-])c12", "large value"),
    ("CC1C(O)CC23COC(=O)C2=CCCC3C1(C)CCC1=CC(=O)OC1 (configuration not stated)", "small value"),
    ("COc1ccc(COc2ccc3c(Cn4ccnc4)cc(=O)oc3c2)cc1OC", "large value"),
    ("Cc1cc(C(=O)O)c2ccc3[nH]ccc3c2n1", "small value"),
]
